- Tested on: P388 leukemia ip, CD2F1 mice, survival T/C
- test method notes: NCI In Vivo Anticancer Drug Screen. Data for tumor model P388 Leukemia (intraperitoneal) in CD2F1 (CDF1) mice
- condition parameters: endpoint: median survival time; dose: 25.0 mg/kg/injection; schedule: Q01DX009 (ip); vehicle: saline with Tween-80
Toxic doses and inconclusive results are not listed. How the source made its calls: active means survival T/C of 150% or more; inactive means T/C below 125% in these data.
Response enum: active, inactive

Sample answers from the record:
{"columns": ["compound", "system", "category label"],
 "data": [
  ["Cc1c(O)c2c(c(O)c1Cc1ccc(C#N)cc1)C(=O)c1ccccc1C2=O", "P388 leukemia ip, CD2F1 mice, survival T/C", "inactive"],
  ["c1ccc2sc(SSN3CC4CCC(CC4)C3)nc2c1", "P388 leukemia ip, CD2F1 mice, survival T/C", "inactive"]
]}

Req: Could you kindly confirm the outcome this assay logged for C/C=C(\C(=O)O)S(=O)(=O)O.[Pb] ?
Resp: inactive

Req: Could you kindly confirm the outcome this assay logged for CC(C)CCc1cc(O)ccc1O ?
Resp: inactive

Req: Could you kindly confirm the outcome this assay logged for CCCCOP(=O)(CCCC)OCCCC.CCCCOP(=O)(CCCC)OCCCC.CCCCOP(=O)(CCCC)OCCCC.CCCCOP(=O)(CCCC)OCCCC.O.O.[Co+2].[O-][Cl+3]([O-])([O-])O ?
Resp: inactive

Where do these numbers come from? They come from PubChem BioAssay AID330.
